Quick reference: GI50 of the listed items.
- Test system: NCI/ADR-RES ovarian
- experimental protocol: NCI tumour cell line growth inhibition, 48 h

Take a look at these entries with their results.
CC1(N)CCN(c2cnc(-c3cccc(Cl)c3Cl)c(N)n2)CC1 ... 17 µM
CC(=O)O[C@H]1[C@@H]2OC(=O)C(CSc3ccccc3)[C@@H]2C[C@H]2O[C@]2(C)CC/C=C(\C)CCC[C@@H]1C (some centres undefined) ... 2.99 µM
COc1ccc2c(c1)C(=O)/C(=C/c1ccc([N+](=O)[O-])o1)O2 ... 3.11 µM

Query compound follows.
Ask | Quick check: GI50 of `CN(C)CCNc1c2ccccc2nc2oc3ccccc3c12` ?
Reply | 9 µM

---

Quick reference: TGI of the listed items.
- Tested on: M14 melanoma
- experimental protocol: NCI tumour cell line growth inhibition, 48 h

Clc1ccc(OCc2nnc3sc(-c4ccc(-c5ccc(Cl)cc5Cl)o4)nn23)cc1 ... > 100 µM
COC1(OC)C=CC2C1C1C=CC2C1(OC)OC (centres undefined) ... > 100 µM
CCOC(=O)c1cnc2sc3ccc4ccccc4c3n2c1=O ... > 100 µM

Query compound follows.
Ask | Quick check: TGI of `CCC(=O)Nc1ccc(C)c(-c2ccc(C(=O)NCC3CC3)cc2)c1` ?
Reply | > 25 µM

---

- Tested on: U251 CNS
- experimental protocol: NCI tumour cell line growth inhibition, 48 h
Quick reference: TGI of the listed items.

Take a look at these entries with their results.
CCCN(CCC)c1ccc(/C=N/NC(=O)c2cccnc2)c(OC)c1 ... > 100 µM
O=C1NC(N2CCCCC2)=N/C1=C\c1ccc(Cl)cc1 ... > 100 µM
CC(=O)O[C@@]1(C)[C@@H](C)C(=O)O[C@@H]2CCN3CC=C(COC(=O)[C@]1(C)O)[C@H]23 ... > 100 µM
CC(=O)c1ccc2c(c1)CC1(C2)Cc2ccc3c(c2C1=O)CCC3 (stereo not given) ... > 100 µM
N#CC(C#N)N=Nc1ccc(-c2nc3ccccc3o2)cc1 ... 29.7 µM

Ask | Quick check: TGI of `Cc1[nH]c(=O)[nH]c1C(=O)c1ccc(-n2ccnc2)cc1` ?
Reply | > 100 µM

---

- Tested on: A498 renal
- experimental protocol: NCI tumour cell line growth inhibition, 48 h
value kind: TGI

Take a look at these entries with their results.
Cc1cc(-c2ccccn2)cc(C)c1/C=C/c1cncc(-c2nn[nH]n2)c1 ... > 25 µM
CC1(C)N=C(N)N=C(N)N1c1cccc(C(=O)Nc2ccc(S(=O)(=O)F)cc2)c1 ... > 100 µM
COc1ccc(NC(=O)C(C)Oc2ccc(OCC3CCCCC3)cc2)cc1 (centres undefined) ... > 100 µM
COc1ccc(NC(C)=O)c(C(O)CCNC(C)=O)c1 (centres undefined) ... > 100 µM
Cc1nc2[nH]ncn2c(=O)c1CCCl ... > 10 µM
CC(=O)O[C@@]12CO[C@@H]1C[C@@H](O)[C@@]1(C)C(=O)[C@H](O)C3=C(C)[C@@H](OC(=O)[C@H](O)[C@@H](NC(=O)c4ccccc4)c4ccccc4)C[C@@](O)([C@@H](OC(=O)c4ccccc4)C12)C3(C)C (some centres undefined) ... > 100 µM

Ask | Quick check: TGI of COC1(OC)C=CC2C1C1C=CC2C1(OC)OC (centres undefined) ?
Reply | > 100 µM

Ask | Check O=C(O)CCC(N=NNc1ccc(-c2nc3ccccc3[nH]2)cc1)C(=O)O (centres undefined) too.
Reply | > 100 µM

Ask | Check `COc1cccc(Nc2nc(N)nc(N)c2N)c1` too.
Reply | > 100 µM

---

Quick reference: TGI of the listed items.
- Tested on: UACC-62 melanoma
- experimental protocol: NCI tumour cell line growth inhibition, 48 h

Take a look at these entries with their results.
N=CN=CC(=S)O[C@@H]1C(=O)N2CCC[C@@]23CCCC[C@@H]13 ... > 12.5 µM
CC(C)(C)c1ccc(OCCOCCOc2ccc(C(C)(C)C)cc2S(=O)(=O)Nc2ccc([N+](=O)[O-])cc2)c(S(=O)(=O)Nc2ccc([N+](=O)[O-])cc2)c1 ... > 100 µM
CC1(C)N=C(N)N=C(N)N1c1cccc(C(=O)Nc2ccc(S(=O)(=O)F)cc2)c1 ... > 100 µM
C=C(C(=C)N1N=NC2C3CCC(C3)C21)N1N=NC2C3CCC(C3)C21 (stereo not given) ... > 100 µM

Query molecule follows.
Ask | Quick check: TGI of `Cc1ccnc2[nH]c(-c3ccc(F)cc3)cc(=O)c12` ?
Reply | > 100 µM

---

- Test system: HCC-2998 colon
- experimental protocol: NCI tumour cell line growth inhibition, 48 h
Quick reference: TGI of the listed items.
The answer is to be given in µM; state only the numeric part.

C#Cc1cc(Br)c(OC(=O)C(C)(C)C)c(-c2cc(C#C)cc(Br)c2OC(=O)C(C)(C)C)c1 ... 90.7

Ask | Quick check: TGI of `CCOC(=O)c1c(C)n([O-])c2cc(Cl)c(Cl)cc2[n+]1=O` ?
Reply | 29.1

Ask | Check `Nc1ccc(C23CC4CC(C2)CC(c2ccc(N)cc2)(C4)C3)cc1` too.
Reply | 78.6

Ask | Check `CCN(CC)Cc1ccc(C(=S)Nc2ccc(C)cc2)s1` too.
Reply | 25.6

Ask | Check `Fc1cccc(-n2ccc(-c3ccccc3)nc2=S)c1` too.
Reply | 33.4

Ask | Check C=C(CO)[C@@H]1CC[C@]2(COC3CCCCO3)CC[C@]3(C)[C@H](CC[C@@H]4[C@@]5(C)C=C(C=O)C(=O)C(C)(C)[C@@H]5CC[C@]43C)[C@@H]12 (stereo not given in full) too.
Reply | 0.838

---

Quick reference: TGI of the listed items.
- Tested on: T-47D breast
- experimental protocol: NCI tumour cell line growth inhibition, 48 h

Take a look at these entries with their results.
CSc1nc2c(c(N3CCOCC3)n1)C(O)n1c(nc3ccccc31)S2 (stereo not given) ... > 100 µM
NS(=O)(=O)CC1CC[CH-]CC1.[Cl-].[Cl-].[Cl-].[Cl-].[Cl-].[Sb+5].c1ccncc1 ... > 100 µM
O=C(N/N=C/c1ccc([N+](=O)[O-])cc1)Nc1ccc(Br)cc1 ... > 100 µM
CC(=O)OC[C@@]12Cc3ccc(C)c(O)c3[C@]1(C)[C@@H](OC(C)=O)[C@]1(O)[C@H]([C@@H](OC(=O)c3ccccc3)[C@@H](C)[C@H]1OC(C)=O)[C@H]2OC(C)=O ... > 50 µM

Ask | Quick check: TGI of `CCS(=O)(=O)CCn1c(=O)c2c(ncn2C)n(C)c1=O` ?
Reply | > 100 µM

Ask | Check `Cc1cc(N2CCOCC2)nc(N(CCCNc2ccnc3cc(Cl)ccc23)Cc2ccco2)n1` too.
Reply | 7.26 µM

Ask | Check `C/C(O)=C(\C#N)C(=O)Nc1ccc(C(F)(F)F)cc1` too.
Reply | > 100 µM

Ask | Check `CCCCCCCCCNC(=O)/C=C/c1ccc(O)c(O)c1` too.
Reply | 59.9 µM

Ask | Check `O=C1/C(=C/c2ccc(Cl)cc2)CCC/C1=C\c1ccc(Cl)cc1` too.
Reply | > 100 µM

---

Quick reference: TGI of the listed items.
- Tested on: SF-539 CNS
- experimental protocol: NCI tumour cell line growth inhibition, 48 h

CC(=O)OC[C@@]12Cc3ccc(C)c(O)c3[C@]1(C)[C@@H](OC(C)=O)[C@]1(O)[C@H]([C@@H](OC(=O)c3ccccc3)[C@@H](C)[C@H]1OC(C)=O)[C@H]2OC(C)=O ... > 50 µM

Ask | Quick check: TGI of `CCOC(=O)c1cc(Br)c(-c2cc(C)no2)[nH]1` ?
Reply | > 100 µM

Ask | Check `CSc1nc(C)c(CCOC(C)=O)c(Cl)n1` too.
Reply | > 100 µM

Ask | Check `CC(C)(C)OC(=O)NCCNCCNc1ccccc1` too.
Reply | > 100 µM

Ask | Check `Nc1n[n+](-c2ccccc2)no1` too.
Reply | > 100 µM

---

- System: T-47D breast
- experimental protocol: NCI tumour cell line growth inhibition, 48 h
value kind: GI50

Take a look at these entries with their results.
Cc1cc(-c2ccccn2)cc(C)c1/C=C/c1cncc(-c2nn[nH]n2)c1 ... > 25 µM
CCOC(=O)C#Cc1c(C(=O)OCC)nnn1Cc1ccc([N+](=O)[O-])cc1 ... 2.78 µM

Query molecule follows.
Ask | Quick check: GI50 of `O=C1/C(=C/c2ccc(Cl)cc2)CCC/C1=C\c1ccc(Cl)cc1` ?
Reply | 8.76 µM

---

Quick reference: TGI of the listed items.
- Test system: MDA-MB-435
- experimental protocol: NCI tumour cell line growth inhibition, 48 h

Ask | Quick check: TGI of `CC(C)C[C@H](NC(=O)[C@H](Cc1ccc(F)cc1)NC(=O)c1ccccn1)B(O)O` ?
Reply | < 0.01 µM

Ask | Check `CC(C)(C)OC(=O)NCCNCCNc1ccccc1` too.
Reply | > 100 µM

Ask | Check `O=c1cc(N=Nc2ccc(Cl)c(Cl)c2)[nH]c(=O)[nH]1` too.
Reply | 17.6 µM

Ask | Check O=C1c2ccccc2C2C1C(c1ccccc1)C1(Cc3ccccc3C1=O)C2c1ccccc1 (stereo not drawn) too.
Reply | > 100 µM

Ask | Check `CSC1=NNC(SC)=NN1` too.
Reply | 0.321 µM

Ask | Check `O=S(=O)(SC1=NCCN1)c1cccc2ccccc12` too.
Reply | > 100 µM

Ask | Check `COc1ccc(N=NC(=Nc2ccc(Cl)cc2)c2ccc(N(CCC#N)CCC#N)cc2)cc1` too.
Reply | > 100 µM

Ask | Check `Oc1cc(N2CCCC2)ccc1/C=N/N1C(=S)N(c2ccccc2)C(=Nc2ccccc2)C1=Nc1ccccc1` too.
Reply | > 100 µM
